experiment: Cynomolgus monkey absorption test (pharmacokinetics); type: in vivo, cynomolgus monkeys; conditions: both sexes, cynomolgus monkey, plasma, po, 15 mg/kg, cynomolgus monkeys, single oral 15 mg/kg
Property Name: AUC(0-t)
Numeric answer plus unit only.

Which AUC(0-t) value belongs to Cc1cc(-c2c(-c3ccccc3)nc(N)n3nc(CO)nc23)cc(C(F)(F)F)n1 [ILB-2109] ?
192 µM·h

* * *

Experiment: 4-week repeated-dose toxicity test in rats
Parameters: species or system SD rats
Settings: male, Sprague-Dawley, rat, in vivo, 60 mg/kg
Protocol: In accordance with the relevant requirements of the Good Laboratory Practice for Non-clinical Drug Studies issued by the National Medical Products Administration of the People's Republic of China, and following the test protocol and revisions, the safety pharmacology test, single-dose toxicity, genetic toxicity, etc. of ILB-2109 were explored. SD rats were given continuous intragastric administration of ILB-2109 at doses of 0 (vehicle), 60, 200 and 600 mg/kg for 28 consecutive days. […]
Property Name: Cmax (ng/mL)
Write down the numeric answer in ng/mL and omit the unit.

// lookup Cmax for Cc1cc(-c2c(-c3ccccc3)nc(N)n3nc(CO)nc23)cc(C(F)(F)F)n1
15900

These entries and their values trace back to patent EP4813990A1.
